Reference for the values: ChEMBL document CHEMBL4138259

Experiment Summary: Metabolic stability in Beagle dog liver microsomes assessed as compound remaining at 10 uM after 120 mins in presence of NADPH by Radio-HPLC analysis
Type: ADME, Canis lupus familiaris, microsome
Measurement Parameters: read-out: Stability
Result Type: remaining at 2 h, 10 µM (%)
// return numeric value only (unit: %, not printed)

Qu. Please look at this molecule and report its remaining at 2 h, 10 µM: Cl.O=C(O)CNC(=O)c1c(O)cc(CCc2ccccc2)n2ncnc12
Ans. 100

* * *

Experiment Summary: Oral bioavailability in CD(SD) rat at 1 mg/kg
Assay type: ADME, organism-based
Measurement Parameters: in vivo
Result Type: bioavailability (%)
// return numeric value only (unit: %, not printed)

Qu. Please look at this molecule and report its bioavailability: Cl.O=C(O)CNC(=O)c1c(O)cc(CCc2ccccc2)n2ncnc12
Ans. 75

* * *

Experiment Summary: MRT in CD(SD) rat at 0.3 mg/kg, iv
Assay type: ADME, organism-based
Measurement Parameters: in vivo
Result Type: MRT (h)
// return numeric value only (unit: h, not printed)

Qu. Please look at this compound and report its MRT: Cl.O=C(O)CNC(=O)c1c(O)cc(CCc2ccccc2)n2ncnc12
Ans. 1.8

* * *

Experiment Summary: Metabolic stability in Sprague-Dawley rat liver microsomes assessed as compound remaining at 10 uM after 120 mins in presence of NADPH by Radio-HPLC analysis
Format: ADME, microsome
Measurement Parameters: read-out: Stability
Result Type: remaining at 2 h, 10 µM (%)
// return numeric value only (unit: %, not printed)

Qu. Please look at this compound and report its remaining at 2 h, 10 µM: Cl.O=C(O)CNC(=O)c1c(O)cc(CCc2ccccc2)n2ncnc12
Ans. 98

* * *

Assay System: Voltage-gated inwardly rectifying potassium channel KCNH2 (Homo sapiens, UniProt Q12809)
Sequence (Q12809 whole entry): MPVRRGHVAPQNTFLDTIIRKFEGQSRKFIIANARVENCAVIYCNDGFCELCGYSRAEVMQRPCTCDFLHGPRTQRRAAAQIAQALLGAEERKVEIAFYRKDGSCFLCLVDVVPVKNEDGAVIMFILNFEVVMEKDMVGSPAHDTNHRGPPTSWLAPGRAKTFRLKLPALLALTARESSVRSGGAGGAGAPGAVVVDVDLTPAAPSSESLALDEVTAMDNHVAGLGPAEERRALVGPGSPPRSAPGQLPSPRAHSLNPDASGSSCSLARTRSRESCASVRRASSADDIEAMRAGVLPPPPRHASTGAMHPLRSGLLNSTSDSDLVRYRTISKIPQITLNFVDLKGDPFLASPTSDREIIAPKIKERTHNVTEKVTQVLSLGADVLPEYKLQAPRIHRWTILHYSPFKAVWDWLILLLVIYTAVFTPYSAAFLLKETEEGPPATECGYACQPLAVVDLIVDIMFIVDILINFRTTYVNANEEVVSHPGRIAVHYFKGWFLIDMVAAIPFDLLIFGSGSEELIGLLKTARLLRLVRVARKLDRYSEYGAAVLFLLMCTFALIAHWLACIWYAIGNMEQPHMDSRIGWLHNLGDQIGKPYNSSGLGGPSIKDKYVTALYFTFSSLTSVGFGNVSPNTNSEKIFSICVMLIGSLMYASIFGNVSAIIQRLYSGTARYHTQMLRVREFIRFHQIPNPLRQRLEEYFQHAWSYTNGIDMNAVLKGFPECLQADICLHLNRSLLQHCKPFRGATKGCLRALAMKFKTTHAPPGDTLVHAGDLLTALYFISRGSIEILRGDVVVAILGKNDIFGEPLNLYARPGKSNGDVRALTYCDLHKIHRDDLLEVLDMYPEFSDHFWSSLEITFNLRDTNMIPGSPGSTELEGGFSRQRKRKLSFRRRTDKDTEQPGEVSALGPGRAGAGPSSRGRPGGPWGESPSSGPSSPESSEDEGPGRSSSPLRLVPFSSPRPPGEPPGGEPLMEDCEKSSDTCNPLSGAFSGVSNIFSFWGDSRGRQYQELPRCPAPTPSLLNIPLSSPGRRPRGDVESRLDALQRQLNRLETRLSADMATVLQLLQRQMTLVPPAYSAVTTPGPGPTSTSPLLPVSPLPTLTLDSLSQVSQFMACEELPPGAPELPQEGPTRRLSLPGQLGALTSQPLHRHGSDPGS
Experiment Summary: Inhibition of human ERG expressed in HEK293 cells at holding potential of -80 mV by whole cell patch clamp method
pIC50: −log10 of the molar value.
Result Type: pIC50

Qu. Please look at this compound and report its pIC50: Cl.O=C(O)CNC(=O)c1c(O)cc(CCc2ccccc2)n2ncnc12
Ans. < 4.00

* * *

Assay System: Egl nine homolog 1 (Homo sapiens)
Sequence (Q9GZT9 whole entry): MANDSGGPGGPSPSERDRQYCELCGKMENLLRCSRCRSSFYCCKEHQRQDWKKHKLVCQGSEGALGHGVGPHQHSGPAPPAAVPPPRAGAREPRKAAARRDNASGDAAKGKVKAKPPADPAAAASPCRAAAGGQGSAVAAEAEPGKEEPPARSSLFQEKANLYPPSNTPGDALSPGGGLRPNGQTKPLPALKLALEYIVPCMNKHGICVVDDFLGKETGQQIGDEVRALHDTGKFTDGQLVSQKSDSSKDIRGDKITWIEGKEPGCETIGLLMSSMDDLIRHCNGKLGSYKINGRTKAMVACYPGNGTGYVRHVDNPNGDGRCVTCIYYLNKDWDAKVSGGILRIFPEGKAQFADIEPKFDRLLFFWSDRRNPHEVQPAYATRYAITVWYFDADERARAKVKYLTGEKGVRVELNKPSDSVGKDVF
Experiment Summary: Inhibition of PHD2 in human Hep3B cells assessed as increase in EPO release after 24 hrs by ELISA
Result Type: EC50 (µM)
// return numeric value only (unit: µM, not printed)

Qu. Please look at this compound and report its EC50: Cl.O=C(O)CNC(=O)c1c(O)cc(CCc2ccccc2)n2ncnc12
Ans. 5.7

* * *

pIC50: −log10 of the molar value.
Result Type: pIC50

Qu. Jot down pIC50 (Cytochrome P450 2D6 (Homo sapiens, UniProt P10635)) of Cl.O=C(O)CNC(=O)c1c(O)cc(CCc2ccccc2)n2ncnc12 .
Ans. < 4.00

* * *

Assay System: Cytochrome P450 2A6 (Homo sapiens)
Sequence (P11509 whole entry): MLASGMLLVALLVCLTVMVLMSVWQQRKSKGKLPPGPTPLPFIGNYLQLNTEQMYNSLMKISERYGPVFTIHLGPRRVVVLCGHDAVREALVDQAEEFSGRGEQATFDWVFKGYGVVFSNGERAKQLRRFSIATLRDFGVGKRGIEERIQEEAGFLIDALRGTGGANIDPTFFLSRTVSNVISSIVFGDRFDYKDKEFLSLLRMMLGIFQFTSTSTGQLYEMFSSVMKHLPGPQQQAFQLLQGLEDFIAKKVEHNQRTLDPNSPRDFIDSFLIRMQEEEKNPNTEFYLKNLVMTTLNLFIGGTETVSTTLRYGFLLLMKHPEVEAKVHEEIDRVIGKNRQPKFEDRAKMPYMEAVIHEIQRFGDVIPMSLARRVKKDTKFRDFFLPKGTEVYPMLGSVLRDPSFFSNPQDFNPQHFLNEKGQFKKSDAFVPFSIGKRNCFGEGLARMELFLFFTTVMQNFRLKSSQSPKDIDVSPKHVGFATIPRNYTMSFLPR
Result Type: IC50

Qu. Please look at this compound and report its IC50: Cl.O=C(O)CNC(=O)c1c(O)cc(CCc2ccccc2)n2ncnc12
Ans. > 100 µM

* * *

Experiment Summary: Metabolic stability in cynomolgus monkey liver microsomes assessed as compound remaining at 10 uM after 120 mins in presence of NADPH by Radio-HPLC analysis
Format: ADME, Macaca fascicularis, microsome
Measurement Parameters: read-out: Stability
Result Type: remaining at 2 h, 10 µM (%)
// return numeric value only (unit: %, not printed)

Qu. Please look at this molecule and report its remaining at 2 h, 10 µM: Cl.O=C(O)CNC(=O)c1c(O)cc(CCc2ccccc2)n2ncnc12
Ans. 94
